protocol.details: Aqueous stability of the compound in PBS assessed as absorbance at 40 uM measured at pH 7.2 after 20 days by spectrophotometer analysis
Type: physicochemical
condition.label: time 20 day, read-out: Stability
measurement.type: remaining at 480 h, 40 µM (%)
Answers are plain numbers, in %.

Query: Consider the compound `COc1cc(-c2nc(N)[nH]c2-c2ccc3ccccc3n2)cc(OC)c1OC` and give its recorded remaining at 480 h, 40 µM.
Response: 47

----------
Consider the following compounds; for each one, report its inhibition at 0.025 µM.
Tested on: HeLa
protocol.details: Antiproliferative activity against human HeLa cells assessed as inhibition of cell growth at 25 nM measured after 24 hrs by SRB assay relative to control
Assay type: functional
Answers are plain numbers, in %.

* COc1cc(-c2nc(N)[nH]c2-c2ccc3cnccc3c2)cc(OC)c1OC | 46
* COc1cc(-c2nc(N)[nH]c2-c2cccc3ncccc23)cc(OC)c1OC | 27
* COc1cc(-c2nc(N)[nH]c2-c2ccc3ncccc3c2)cc(OC)c1OC | 9
* COc1cc(-c2nc(N)[nH]c2-c2ccnc3ccccc23)cc(OC)c1OC | 7
* COc1cc(-c2nc(N)[nH]c2-c2ccc3ccccc3c2)cc(OC)c1OC | 34
* COc1cc(-c2nc(N)[nH]c2-c2cnc3ccc(Cl)cc3c2)cc(OC)c1OC | 11
* COc1cc(-c2nc(N)[nH]c2-c2cccc3cccnc23)cc(OC)c1OC | 32
* COc1cc(-c2nc(N)[nH]c2-c2cnc3ccc(C)cc3c2)cc(OC)c1OC | 8

Working through the 7 compounds below one at a time, give inhibition at 0.025 µM for each.
1. COc1ccc2ncc(-c3[nH]c(N)nc3-c3cc(OC)c(OC)c(OC)c3)cc2c1
2. COc1cc(-c2nc(N)[nH]c2-c2cncc3ccccc23)cc(OC)c1OC
3. COc1cc(-c2nc(N)[nH]c2-c2cccc3cnccc23)cc(OC)c1OC
4. COc1cc(-c2nc(N)[nH]c2-c2ccc3ccccc3n2)cc(OC)c1OC
5. COc1cc(-c2nc(N)[nH]c2-c2ccnc3cc(Cl)ccc23)cc(OC)c1OC
6. COc1cc(-c2nc(N)[nH]c2-c2ccc3nc(C)ccc3c2)cc(OC)c1OC
7. COc1ccc(/C=C\c2cc(OC)c(OC)c(OC)c2)cc1O

Response:
1: 30; 2: 47; 3: 43; 4: 74; 5: 11; 6: 5; 7: 57
